Just for reference, ChEMBL document CHEMBL4477209 is where these values come from.

Assay: Mean residence time (last) in BALB/c mouse lung at 100 mg/kg administered via oral gavage by LC-MS analysis
Type: ADME, organism-based
Catalogue of MRT last values
Your answer is read as h, so omit the unit and give the number.

• C[C@@H]1[C@H]2C[C@@H](C[C@H]1NC(=O)c1cc3c(F)cc(F)cc3[nH]1)C2(C)C = 8.49

Per the record, CC1(C)CCC(NC(=O)c2cc3c(Cl)cc(Cl)cc3[nH]2)CC1 has MRT last of 8.3

====

Assay: Stability in mouse hepatocytes assessed as compound remaining at 1 uM after 2 hrs
Assay type: ADME, cell-based, Hepatocyte
Details: read-out: Stability
readout.label: remaining at 2 h, 1 µM

Per the record, C[C@@H]1[C@H]2C[C@@H](C[C@H]1NC(=O)c1cc3c(F)cc(F)cc3[nH]1)C2(C)C has remaining at 2 h, 1 µM of 15%
